Value source: ChEMBL document CHEMBL1131207

measured on: Platelet-activating factor receptor (Rattus norvegicus) (UniProt P46002)
Sequence (P46002 whole entry): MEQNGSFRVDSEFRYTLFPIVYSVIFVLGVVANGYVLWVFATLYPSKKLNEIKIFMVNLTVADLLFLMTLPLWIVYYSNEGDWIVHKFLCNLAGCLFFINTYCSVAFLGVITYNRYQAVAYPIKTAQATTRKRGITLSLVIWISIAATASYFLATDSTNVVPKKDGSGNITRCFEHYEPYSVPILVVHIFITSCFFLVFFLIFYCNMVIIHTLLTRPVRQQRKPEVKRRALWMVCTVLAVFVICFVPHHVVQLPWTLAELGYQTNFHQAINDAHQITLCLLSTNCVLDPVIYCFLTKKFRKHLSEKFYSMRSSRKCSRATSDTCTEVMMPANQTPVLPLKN
assay info: Ability to block the effect of exogenously administered PAF upon intravenous administration in PAF-induced rat skin permeability assay
Assay type: functional, organism-based
Recorded ED50, one value per entry.

Study these solved cases before continuing.
COC(=O)c1cccc2c1c(C(=O)CCCCCCn1c(C)nc3cnccc31)cn2C(=O)N(C)C; > 1 mg/kg
COC(=O)c1cccc2c1c(C(=O)CCCCn1c(C)nc3cnccc31)cn2C(=O)N(C)C; > 1 mg/kg

Q) Bench note: what ED50 did Cc1[nH]c2ccccc2c1C(=O)c1ccc(Cn2c(C)nc3cnccc32)cc1 show?
A) > 1 mg/kg
